# tested_system: T1, recombinant mouse DLL4 (C-terminally His-tagged extracellular domain, R&D Systems) (mouse, UniProt Q9JI71 27-532)
# T1 construct: extracellular domain; also called rmDLL4; mDLL4
# T1 sequence (Q9JI71 27-532): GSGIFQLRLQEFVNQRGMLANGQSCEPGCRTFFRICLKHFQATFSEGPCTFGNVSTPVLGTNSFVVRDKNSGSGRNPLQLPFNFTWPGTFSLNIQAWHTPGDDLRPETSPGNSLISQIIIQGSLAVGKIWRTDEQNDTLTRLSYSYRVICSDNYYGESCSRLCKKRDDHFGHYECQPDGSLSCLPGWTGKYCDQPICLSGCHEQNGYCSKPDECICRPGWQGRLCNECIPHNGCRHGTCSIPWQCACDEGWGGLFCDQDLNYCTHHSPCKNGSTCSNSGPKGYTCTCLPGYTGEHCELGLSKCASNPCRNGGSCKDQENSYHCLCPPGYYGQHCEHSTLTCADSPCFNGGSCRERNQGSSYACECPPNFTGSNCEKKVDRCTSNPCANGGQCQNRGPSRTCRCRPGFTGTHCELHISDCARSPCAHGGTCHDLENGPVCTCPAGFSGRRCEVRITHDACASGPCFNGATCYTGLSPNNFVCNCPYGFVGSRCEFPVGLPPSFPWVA
# protocol_notes: SPR (Biacore), rmDLL4
# key: entry, value: kon

>  <binder>
DLLBII101G08 (VHH, not shown: small tags and cut ends, parent VHH; also called 101G08 (wt); 101G8) VHH: EVQLVESGGGLVQAGGSLRLSCAASGRTFSSYAMAWFRQAPGKEREFVAAIRWSGGTAYYADSVQGRFTISRDNAKNTVYLQMNSLKPEDTAVYYCANRAADTRLGPYEYDYWGQGTQVTVSS

>  <kon [M⁻¹ s⁻¹]>
94000

$$$$
>  <binder>
DLLBII129D08 (VHH, not shown: small tags and cut ends) VHH: EVQLVESGGGLVQAGGSLRLSCAASGRTFSSYAMAWYRQAPGKEREYVAAIRWSGGTAYYADSVQGRFTISRDNAKNTVYLQMNSLKPEDTAVYYCANRAPDTRLEPYLYDYWGQGTQVTVSS

>  <kon [M⁻¹ s⁻¹]>
270000

$$$$
>  <binder>
DLLBII015 (VHH, not shown: small tags and cut ends) VHH: EVQLVESGGGLVQPGGSLRLSCAASGFTIGSYDMSWVRRSPGKGPEWVSAINSGGGSTYYADYVKGRFTISRDNAKNTLYLQMNSLKPEDTAVYYCAADRYIWARQGEYWGAYAYDYWGQGTQVTVSS

>  <kon [M⁻¹ s⁻¹]>
350000

$$$$
>  <binder>
DLLBII133G05 (VHH, not shown: small tags and cut ends) VHH: EVQLVESGGGLVQPGGSLRLSCAASGFTFGSYDMSWVRRSPGKGPEWVSAINSGGGSTYYTDYVKGRFTISRDNAKNTLYLQMNSLKPEDTAVYYCAADRYIWARQGEYWGAYAYDYWGQGTQVTVSS

>  <kon [M⁻¹ s⁻¹]>
470000

$$$$
>  <binder>
DLLBII129E11 (VHH, not shown: small tags and cut ends) VHH: EVQLVESGGGLVQAGGSLRLSCAASGRTFSSYAMAWYRQAPGKEREYVAAIRWSGGTAYYADSVQGRFTISRDNAKNTVYLQMNSLKPEDTAVYYCANRAPDTRLRPYLYDYWGQGTQVTVSS

>  <kon [M⁻¹ s⁻¹]>
250000

$$$$
>  <binder>
DLLBII115A05 (VHH, not shown: small tags and cut ends, parent VHH; also called 115A05 (wt); 115A5) VHH: EVQLVESGGGLVQPGGSLRLSCAASGFTFGSYDMSWVRRSPGKGPEWVSSINSGGGSTYYADFVKGRFTISRDNAKNTLYLQMNSLKPEDTAVYYCAADRYIRARQGDYWGAYEYDYWGQGTQVTVSS

>  <kon [M⁻¹ s⁻¹]>
170000

$$$$
>  <binder>
DLLBII136C07 (VHH, not shown: small tags and cut ends) VHH: EVQLVESGGGLVQPGGSLRLSCAASGFTFGSYDMSWVRRSPGKGPEWVSSINSGGGSTYYADYVKGRFTISRDNAKNTLYLQMNSLKPEDTAVYYCAADRYIWARQGEYWGAYEYDYWGQGTQVTVSS

>  <kon [M⁻¹ s⁻¹]>
500000

$$$$

# credit: patent US20140120095A1
